- study target: Nucleotide-binding oligomerization domain-containing protein 2 (Homo sapiens)
- Sequence (Q9HC29 whole entry, the tested form may be a part): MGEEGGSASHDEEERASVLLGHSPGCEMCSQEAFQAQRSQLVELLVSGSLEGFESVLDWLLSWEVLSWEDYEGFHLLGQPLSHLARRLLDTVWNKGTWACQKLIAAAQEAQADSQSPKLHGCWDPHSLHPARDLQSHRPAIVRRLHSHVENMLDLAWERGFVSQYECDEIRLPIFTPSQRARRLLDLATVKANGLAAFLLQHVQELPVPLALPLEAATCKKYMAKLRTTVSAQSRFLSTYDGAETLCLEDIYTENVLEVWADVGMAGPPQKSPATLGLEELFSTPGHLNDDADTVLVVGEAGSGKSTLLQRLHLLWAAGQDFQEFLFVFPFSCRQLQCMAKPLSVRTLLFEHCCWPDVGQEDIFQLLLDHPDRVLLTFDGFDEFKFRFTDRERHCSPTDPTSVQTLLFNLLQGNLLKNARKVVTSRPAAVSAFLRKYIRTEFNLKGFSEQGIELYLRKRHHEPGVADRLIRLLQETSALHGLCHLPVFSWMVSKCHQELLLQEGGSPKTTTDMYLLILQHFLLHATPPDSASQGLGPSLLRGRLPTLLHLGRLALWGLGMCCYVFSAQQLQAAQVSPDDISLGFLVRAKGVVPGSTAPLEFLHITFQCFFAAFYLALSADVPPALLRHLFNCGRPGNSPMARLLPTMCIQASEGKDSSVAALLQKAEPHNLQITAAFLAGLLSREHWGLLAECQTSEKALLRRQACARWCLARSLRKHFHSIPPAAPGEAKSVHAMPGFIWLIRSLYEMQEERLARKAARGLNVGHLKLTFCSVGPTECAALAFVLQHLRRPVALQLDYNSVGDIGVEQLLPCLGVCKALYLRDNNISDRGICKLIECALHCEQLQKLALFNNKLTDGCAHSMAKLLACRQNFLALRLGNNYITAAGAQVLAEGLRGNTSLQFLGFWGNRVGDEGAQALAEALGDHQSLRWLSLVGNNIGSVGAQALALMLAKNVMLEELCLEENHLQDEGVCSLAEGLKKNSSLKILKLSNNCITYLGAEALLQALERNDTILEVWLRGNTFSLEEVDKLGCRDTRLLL
- experimental protocol: Antagonist activity at human NOD2 expressed in HEK-Blue cells assessed as inhibition of MDP-stimulated cell activation at 10 uM preincubated for 3 hrs followed by MDP addition measured after 20 hrs by SEAP reporter gene assay
- Format: cell-based
Catalogue of inhibition readings, one per entry.
Answer in %, number only, no unit symbol.

>>> endpoint_result("CCCCCCCCCN1C(=O)[C@@H](CCC(=O)NCc2cccnc2)N(C)C(=O)c2ccc(Cl)cc21")
30.9
>>> endpoint_result("CCCCCCCCCN1C(=O)[C@@H](CCC(N)=O)N(C)C(=O)c2ccc(Cl)cc21")
29.5
>>> endpoint_result("COC(=O)CCC1NC(=O)c2cc(Cl)ccc2N(CC2CC2)C1=O (stereo not drawn)")
-2.7
>>> endpoint_result("Cc1ccc(Oc2cc3c(cc2NC(=O)C2CC2)NC(=O)[C@@H](CCC(=O)O)NC3=O)cc1C")
-3.78
>>> endpoint_result("C=CC(=O)Nc1cc2c(cc1Oc1cccc(N(C)C)c1)C(=O)N[C@H](CCC(=O)OC)C(=O)N2")
91.9

Return reported inhibition; argument: COC(=O)CC[C@H]1NC(=O)c2cc(Oc3cccc(N(C)C)c3)c(NC(=O)COCc3ccc(C(C)(C)C)cc3)cc2NC1=O
75.7

# get_value(readout='inhibition', item= CCCNC(=O)CC[C@H]1NC(=O)c2cc(Oc3cccc(N(C)C)c3)c(NC(=O)COCc3ccccc3)cc2NC1=O )
80.4

Bench note: what inhibition did CN(C)c1cccc(Oc2cc3c(cc2NC(=O)COCc2ccc(Cl)cc2)NC(=O)[C@@H](CCC(=O)N2CCCCC2)NC3=O)c1 show?
96.7

Quick check: inhibition of CN(C)c1cccc(Oc2cc3c(cc2NC(=O)COCc2ccc(C(F)(F)F)cc2)NC(=O)[C@@H](CCC(=O)N2CCC(F)(F)CC2)NC3=O)c1 ?
94.8

Name the reported inhibition value associated with the compound CCN(CC)C(=O)CC[C@H]1NC(=O)c2cc(Cl)ccc2NC1=O
21.5

Recorded inhibition for COC(=O)CC[C@H]1NC(=O)c2cc(OC)c(NC(=O)c3ccc4ccccc4c3)cc2NC1=O , please?
76.6

Endpoint output: inhibition of CCCCN(CCCC)c1cc2c(cc1NC(C)=O)NC(=O)[C@@H](CCC(=O)OC)NC2=O . Value?
-7.93

For CN(C)c1cccc(Oc2cc3c(cc2NC(=O)COCc2ccccc2)NC(=O)[C@@H](CCC(=O)NC2CC2)NC3=O)c1 , what is its reported inhibition?
57
